Measured values drawn from ChEMBL document CHEMBL4350962 for this set.

Tested on: ARPE-19
Assay: Cytotoxicity against human ARPE19 cells measured after 96 hrs by MTT assay
Format: cell-based
Details: ARPE-19, 96 h
Flag rule - IC50 less than 300 nM flags fulfilled; the remaining entries get not fulfilled.

Illustrative cases are given below, each with its answer.
1) CCCCCCCC[Si](C)(C)OCC1=C(C)C[C@H]([C@@H](C)[C@H]2CC[C@H]3[C@@H]4C[C@H]5O[C@]56[C@@H](O[Si](C)(C)CCCCCCCC)C=CC(=O)[C@]6(C)[C@H]4CC[C@]23C)OC1=O    not fulfilled
2) CC1=C(CO)C(=O)O[C@@H]([C@@H](C)[C@H]2CC[C@H]3[C@@H]4C[C@H]5O[C@]56[C@@H](O)C=CC(=O)[C@]6(C)[C@H]4CC[C@]23C)C1 [WITHAFERIN A]    fulfilled
3) CC1=C(CO[Si](C(C)C)(C(C)C)C(C)C)C(=O)O[C@@H]([C@@H](C)[C@H]2CC[C@H]3[C@@H]4C[C@H]5O[C@]56[C@@H](O)C=CC(=O)[C@]6(C)[C@H]4CC[C@]23C)C1    fulfilled
4) CCCC[Si](CCCC)(CCCC)OCC1=C(C)C[C@H]([C@@H](C)[C@H]2CC[C@H]3[C@@H]4C[C@H]5O[C@]56C(=O)C=CC(=O)[C@]6(C)[C@H]4CC[C@]23C)OC1=O    not fulfilled
5) CCC[Si](CCC)(CCC)OCC1=C(C)C[C@H]([C@@H](C)[C@H]2CC[C@H]3[C@@H]4C[C@H]5O[C@]56C(=O)C=CC(=O)[C@]6(C)[C@H]4CC[C@]23C)OC1=O    not fulfilled

Dear reviewer, please state whether CC1=C(CO[Si](C)(C)C(C)(C)C)C(=O)O[C@@H]([C@@H](C)[C@H]2CC[C@H]3[C@@H]4C[C@H]5O[C@]56[C@@H](O)C=CC(=O)[C@]6(C)[C@H]4CC[C@]23C)C1 has IC50 strictly beneath 300 nM. fulfilled

Quick check: IC50 of CC[Si](CC)(CC)OCC1=C(C)C[C@H]([C@@H](C)[C@H]2CC[C@H]3[C@@H]4C[C@H]5O[C@]56C(=O)C=CC(=O)[C@]6(C)[C@H]4CC[C@]23C)OC1=O under 300 nM? not fulfilled

Given CC1=C(CO[Si](C)(c2ccccc2)c2ccccc2)C(=O)O[C@@H]([C@@H](C)[C@H]2CC[C@H]3[C@@H]4C[C@H]5O[C@]56[C@@H](O)C=CC(=O)[C@]6(C)[C@H]4CC[C@]23C)C1 , is recorded IC50 strictly lower than 300 nM? fulfilled

====

Test: Selectivity index, ratio of IC50 for human ARPE19 cells to IC50 for cisplatin-sensitive human A2780 cells
Format: toxicity
Details: ARPE19 cells versus cisplatin-sensitive A2780 cells, read-out: Ratio IC50
result-type: selectivity ratio

Form field: reported selectivity ratio of CC1=C(CO[Si](C)(C)C(C)(C)C)C(=O)O[C@@H]([C@@H](C)[C@H]2CC[C@H]3[C@@H]4C[C@H]5O[C@]56C(=O)C=CC(=O)[C@]6(C)[C@H]4CC[C@]23C)C1 97.7

I am curious: what selectivity ratio value has been reported for CC1=C(CO[Si](C)(C)C)C(=O)O[C@@H]([C@@H](C)[C@H]2CC[C@H]3[C@@H]4C[C@H]5O[C@]56C(=O)C=CC(=O)[C@]6(C)[C@H]4CC[C@]23C)C1 ? 20

Give the measured selectivity ratio of CC1=C(CO)C(=O)O[C@@H]([C@@H](C)[C@H]2CC[C@H]3[C@@H]4C[C@H]5O[C@]56[C@@H](O[Si](C)(C)C(C)C)C=CC(=O)[C@]6(C)[C@H]4CC[C@]23C)C1 . 9.1

What measured selectivity ratio goes with CC1=C(CO[Si](C)(C)C(C)C)C(=O)O[C@@H]([C@@H](C)[C@H]2CC[C@H]3[C@@H]4C[C@H]5O[C@]56C(=O)C=CC(=O)[C@]6(C)[C@H]4CC[C@]23C)C1 ? 49.8

====

Assay: Selectivity index, ratio of IC50 for human ARPE19 cells to IC50 for cisplatin-resistant human A2780/CP70 cells
Type: toxicity
Conditions: ARPE19 cells versus cisplatin-resistant A2780/CP70 cells, read-out: Ratio IC50
Here, each record is paired with measured selectivity ratio data.
Simply state the number, no unit and no words.

1) CC1=C(CO[Si](C(C)C)(C(C)C)C(C)C)C(=O)O[C@@H]([C@@H](C)[C@H]2CC[C@H]3[C@@H]4C[C@H]5O[C@]56C(=O)C=CC(=O)[C@]6(C)[C@H]4CC[C@]23C)C1    1.1
2) CC1=C(CO)C(=O)O[C@@H]([C@@H](C)[C@H]2CC[C@H]3[C@@H]4C[C@H]5O[C@]56[C@@H](O[Si](C)(C)C(C)C)C=CC(=O)[C@]6(C)[C@H]4CC[C@]23C)C1    13.5
3) CC1=C(CO[Si](C)(C)c2ccccc2)C(=O)O[C@@H]([C@@H](C)[C@H]2CC[C@H]3[C@@H]4C[C@H]5O[C@]56[C@@H](O[Si](C)(C)c5ccccc5)C=CC(=O)[C@]6(C)[C@H]4CC[C@]23C)C1    10.7

What measured selectivity ratio goes with CC1=C(CO[Si](C)(c2ccccc2)c2ccccc2)C(=O)O[C@@H]([C@@H](C)[C@H]2CC[C@H]3[C@@H]4C[C@H]5O[C@]56[C@@H](O)C=CC(=O)[C@]6(C)[C@H]4CC[C@]23C)C1 ? 2.5

====

Tested on: ARPE-19
Assay: Cytotoxicity against human ARPE19 cells measured after 96 hrs by MTT assay
Type: cell-based
Conditions: ARPE-19, 96 h
Lab note - cut at 800 nM for IC50: fulfilled if strictly below, not fulfilled if not.

See these solved cases before continuing.
1. CC1=C(CO[Si](C)(C)C(C)(C)C)C(=O)O[C@@H]([C@@H](C)[C@H]2CC[C@H]3[C@@H]4C[C@H]5O[C@]56C(=O)C=CC(=O)[C@]6(C)[C@H]4CC[C@]23C)C1    not fulfilled
2. C=C[Si](C)(C)OCC1=C(C)C[C@H]([C@@H](C)[C@H]2CC[C@H]3[C@@H]4C[C@H]5O[C@]56[C@@H](O)C=CC(=O)[C@]6(C)[C@H]4CC[C@]23C)OC1=O    fulfilled
3. CC1=C(CO)C(=O)O[C@@H]([C@@H](C)[C@H]2CC[C@H]3[C@@H]4C[C@H]5O[C@]56[C@@H](O[Si](C)(C)C(C)C)C=CC(=O)[C@]6(C)[C@H]4CC[C@]23C)C1    fulfilled

Lab note: next compound to report on.
IC50 under 800 nM? Item: CC1=C(CO[Si](C)(C)C(C)C)C(=O)O[C@@H]([C@@H](C)[C@H]2CC[C@H]3[C@@H]4C[C@H]5O[C@]56C(=O)C=CC(=O)[C@]6(C)[C@H]4CC[C@]23C)C1 not fulfilled
